Experiment: ATG_DR4_LXR_CIS: Attagene CIS-FACTORIAL HepG2 Assay for human Liver X Receptor (LXR), DR4 submotif (AID 2282929)
Details: HepG2 Attagene DR4 cis-reporter, mRNA transcription; actives raise or lower the signal
Active and inactive are the calls of the source. Rule for the calls: active = hit-call score of the fitted dose curve at least 0.9, where 1 is the maximum; inactive = score below 0.9.
Select the correct class. Options are active, inactive and nothing else.

Query: Returns: the outcome recorded for CS(C)=O in this assay.
Reply: inactive

Query: Returns: the outcome recorded for OCCCCC(O)CO (centres undefined) in this assay.
Reply: inactive

Query: Returns: the outcome recorded for O=C1OC[C@H](Cc2cccc(O)c2)[C@H]1Cc1cccc(O)c1 in this assay.
Reply: active

Query: Returns: the outcome recorded for O=c1c(O)c(-c2ccc(O)cc2)oc2cc(O)cc(O)c12 in this assay.
Reply: inactive

Query: Returns: the outcome recorded for CCCCCCC(CO)CCCC (centres undefined) in this assay.
Reply: inactive

Query: Returns: the outcome recorded for C=CC(C)C#N (centres undefined) in this assay.
Reply: inactive

Query: Returns: the outcome recorded for CCOc1ccc(N=Nc2ccc(C=Cc3ccc(N=Nc4ccc(OCC)cc4)cc3S(=O)(=O)O)c(S(=O)(=O)O)c2)cc1 in this assay.
Reply: inactive

Query: Returns: the outcome recorded for CCOC(=O)COC(=O)c1cc(Oc2ccc(C(F)(F)F)cc2Cl)ccc1[N+](=O)[O-] in this assay.
Reply: active

Query: Returns: the outcome recorded for C=Cc1ccc(C)cc1 in this assay.
Reply: inactive

Query: Returns: the outcome recorded for CC(C)(C)OC(=O)c1ccc(O)cc1 in this assay.
Reply: inactive

Query: Returns: the outcome recorded for NCC1CCCC(CN)C1 (centres undefined) in this assay.
Reply: inactive

Query: Returns: the outcome recorded for Nc1ccc2c(O)cc(S(=O)(=O)O)cc2c1 in this assay.
Reply: inactive

Query: Returns: the outcome recorded for CCCCCCCCCCCCS(=O)(=O)Cl in this assay.
Reply: inactive

Query: Returns: the outcome recorded for c1ccc2cc(Nc3ccc(Nc4ccc5ccccc5c4)cc3)ccc2c1 in this assay.
Reply: inactive

Query: Returns: the outcome recorded for Nc1ccc(N)c2c1C(=O)c1ccccc1C2=O in this assay.
Reply: inactive

Query: Returns: the outcome recorded for CC(C)=CCCC(C)CC(=O)O (centres undefined) in this assay.
Reply: inactive

Query: Returns: the outcome recorded for CCCC(=O)C(CC)Sc1ccoc1C (centres undefined) in this assay.
Reply: inactive

Query: Returns: the outcome recorded for CC(C)(C)C1=CC(=O)C(C(C)(C)C)=CC1=O in this assay.
Reply: active

Query: Returns: the outcome recorded for IC(I)I in this assay.
Reply: inactive

Query: Returns: the outcome recorded for CC(=O)C1(C)CC2=C(CCCC2(C)C)CC1C (centres undefined) in this assay.
Reply: active

Query: Returns: the outcome recorded for N[C@@H](Cc1cc(I)c(Oc2cc(I)c(O)c(I)c2)c(I)c1)C(=O)O in this assay.
Reply: inactive

Query: Returns: the outcome recorded for CCC1CCCCC1 in this assay.
Reply: inactive

Query: Returns: the outcome recorded for CCCC(=O)OC(C)(C)Cc1ccccc1 in this assay.
Reply: inactive

Query: Returns: the outcome recorded for O=C(O)c1ccc(O)cc1 in this assay.
Reply: inactive

Query: Returns: the outcome recorded for COc1ccc(CCN2CCC(Nc3nc4ccccc4n3Cc3ccc(F)cc3)CC2)cc1 in this assay.
Reply: inactive

Query: Returns: the outcome recorded for O=C1c2ccccc2C(=O)c2c(O)ccc(O)c21 in this assay.
Reply: inactive

Query: Returns: the outcome recorded for CSCCC=O in this assay.
Reply: inactive

Query: Returns: the outcome recorded for CCCCCCOC(=O)CCC in this assay.
Reply: inactive

Query: Returns: the outcome recorded for C=C[Si]1(C)O[Si](C)(C=C)O[Si](C)(C=C)O[Si](C)(C=C)O1 (centres undefined) in this assay.
Reply: active

Query: Returns: the outcome recorded for CC(C)c1ccccc1O in this assay.
Reply: inactive

Query: Returns: the outcome recorded for CC1=C(Br)C(=O)C(Br)=C/C1=C(/c1ccccc1S(=O)(=O)O)c1cc(Br)c(O)c(Br)c1C in this assay.
Reply: inactive

Query: Returns: the outcome recorded for O=C(O)CNc1ccccc1 in this assay.
Reply: inactive

Query: Returns: the outcome recorded for CCOC(=O)CN in this assay.
Reply: inactive

Query: Returns: the outcome recorded for CCCCCCCC(=O)OCCCCCC in this assay.
Reply: inactive

The reported measurements were obtained from PubChem BioAssay (EPA / NIEHS).
